UniProtKB P37288 measurements of AC50, listed per entry.
Sequence (P37288 whole entry): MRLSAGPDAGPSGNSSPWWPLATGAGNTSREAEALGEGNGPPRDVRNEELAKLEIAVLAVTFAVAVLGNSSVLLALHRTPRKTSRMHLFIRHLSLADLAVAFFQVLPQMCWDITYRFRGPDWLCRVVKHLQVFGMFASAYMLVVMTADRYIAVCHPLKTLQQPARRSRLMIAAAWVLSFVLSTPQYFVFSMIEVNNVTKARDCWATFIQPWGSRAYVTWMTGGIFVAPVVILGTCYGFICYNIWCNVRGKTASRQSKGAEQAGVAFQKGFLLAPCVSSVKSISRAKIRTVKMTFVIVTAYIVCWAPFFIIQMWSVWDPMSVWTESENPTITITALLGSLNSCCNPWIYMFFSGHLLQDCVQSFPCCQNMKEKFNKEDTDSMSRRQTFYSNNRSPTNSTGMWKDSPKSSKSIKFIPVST
observable: AC50

# compound, observable, result
rows = [
    ("CCC1(c2ccccc2)CCC(=O)NC1=O (stereo not given) [GLUTETHIMIDE]", "AC50", "> 10 µM"),
    ("Nc1ccc(S(=O)(=O)Nc2nccs2)cc1 [SULFATHIAZOLE]", "AC50", "> 10 µM"),
    ("C[C@]12CCC(=O)C(O)=C1CC[C@@H]1[C@@H]2CC[C@]2(C)C(=O)CC[C@@H]12 [FORMESTANE]", "AC50", "> 30 µM"),
    ("CCOC(=O)c1cncn1[C@H](C)c1ccccc1 [ETOMIDATE]", "AC50", "> 10 µM"),
    ("CC(CCc1ccc(O)cc1)NCCc1ccc(O)c(O)c1 (stereo not given) [DOBUTAMINE]", "AC50", "> 30 µM"),
]
